- assay.info: reducers of endogenous Her2 protein level, primary screen, SKBR3 breast tumor cells, AlphaScreen, ATP viability (AID 461);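 as to viability: percent of carrier control wells set as 100% viability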
- recorded.conditions: 18-24 h, measured here: SKBR3 viability, ATP luminescence, at 10 µM
readout.label: viability
Field note: include the unit after the figure.

Example cases with answers are listed next.
>  <molecule>
CCC(C)(C)n1nnnc1C(c1ccc(OC)c(OC)c1)N1CCN(c2ccccc2)CC1 (stereo not drawn)

>  <readout.label>
viability

>  <result>
85%

$$$$
>  <molecule>
COC(=O)c1cn(-c2ccccc2)nc1C(=O)OC

>  <readout.label>
viability

>  <result>
93.5%

$$$$

For the molecule Cn1c(SCc2ccccc2)nnc1C1CCCNC1 (stereo not drawn) , give its reported viability.
112%

For the molecule Cc1ccccc1-c1nc(CS(=O)(=O)CC(=O)N(C)C2CCCCC2)c(C)o1 , give its reported viability.
108%

For the molecule CCCS(=O)(=O)C(=C1Nc2ccccc2N1)S(=O)(=O)CCC , give its reported viability.
105%

For the molecule COc1ccc(CCn2c(N)c(C#N)c3nc4ccccc4nc32)cc1OC , give its reported viability.
64%

For the molecule CCOc1ccc2c(c1)n(CO)c(=S)n2CO , give its reported viability.
107%

For the molecule O=S(CC(O)COCc1ccc(Cl)cc1)c1ccccn1 (stereo not drawn) , give its reported viability.
100%

* * *

- subject.of.test: Receptor tyrosine-protein kinase erbB-2 (Homo sapiens) (UniProt P04626)
- Sequence (P04626 whole entry, looked up): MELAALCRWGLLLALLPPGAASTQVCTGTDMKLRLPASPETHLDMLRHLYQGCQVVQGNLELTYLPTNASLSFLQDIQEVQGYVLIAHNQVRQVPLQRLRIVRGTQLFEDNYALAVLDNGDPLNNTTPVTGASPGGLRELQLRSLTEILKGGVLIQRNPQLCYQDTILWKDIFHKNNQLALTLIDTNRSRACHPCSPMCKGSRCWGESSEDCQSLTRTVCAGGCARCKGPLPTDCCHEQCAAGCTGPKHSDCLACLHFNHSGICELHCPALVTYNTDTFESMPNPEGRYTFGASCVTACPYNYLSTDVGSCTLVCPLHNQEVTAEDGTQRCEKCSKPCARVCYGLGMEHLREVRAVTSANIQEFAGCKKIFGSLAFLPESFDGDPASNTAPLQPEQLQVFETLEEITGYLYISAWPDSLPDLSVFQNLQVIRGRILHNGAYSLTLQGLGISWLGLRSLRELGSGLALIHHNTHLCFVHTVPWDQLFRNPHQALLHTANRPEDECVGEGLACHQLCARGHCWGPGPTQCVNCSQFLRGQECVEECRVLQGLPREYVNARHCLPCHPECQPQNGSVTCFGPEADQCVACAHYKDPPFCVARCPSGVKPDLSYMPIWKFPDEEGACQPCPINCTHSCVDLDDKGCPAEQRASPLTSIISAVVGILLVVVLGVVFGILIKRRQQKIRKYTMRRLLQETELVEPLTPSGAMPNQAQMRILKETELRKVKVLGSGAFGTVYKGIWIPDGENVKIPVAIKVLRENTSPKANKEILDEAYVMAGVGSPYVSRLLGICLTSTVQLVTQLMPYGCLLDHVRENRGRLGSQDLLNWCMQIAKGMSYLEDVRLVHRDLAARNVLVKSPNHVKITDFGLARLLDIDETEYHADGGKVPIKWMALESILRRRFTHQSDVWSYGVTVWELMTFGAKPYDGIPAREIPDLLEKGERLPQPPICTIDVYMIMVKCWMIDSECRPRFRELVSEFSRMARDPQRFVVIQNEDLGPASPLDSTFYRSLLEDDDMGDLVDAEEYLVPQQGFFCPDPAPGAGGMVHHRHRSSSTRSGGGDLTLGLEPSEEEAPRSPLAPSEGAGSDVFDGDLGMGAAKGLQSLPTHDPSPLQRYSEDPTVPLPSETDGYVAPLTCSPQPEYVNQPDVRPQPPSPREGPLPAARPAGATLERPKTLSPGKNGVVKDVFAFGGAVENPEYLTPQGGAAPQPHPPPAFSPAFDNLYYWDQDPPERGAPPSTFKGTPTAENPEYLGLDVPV
- assay.info: reducers of endogenous Her2 protein level, primary screen, SKBR3 breast tumor cells, AlphaScreen, ATP viability (AID 461);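 as to Her2 level: lower value means less Her2 protein in the cells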;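 as to viability: percent of carrier control wells set as 100% viability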
- recorded.conditions: 18-24 h, at 10 µM, stronger effect = lower value
readout.label: Her2 level (%)
Please state the figure in %; there is no need to write the unit.

Example cases with answers are listed next.
>  <molecule>
Fc1ccc(-c2nnc(CN3CCN(c4ncc(C(F)(F)F)cc4Cl)CC3)o2)cc1

>  <readout.label>
Her2 level

>  <recorded.number>
87

$$$$
>  <molecule>
O=c1c2[nH]c3cccc(Cl)c3c2ncn1CCN1CCCCC1

>  <readout.label>
Her2 level

>  <recorded.number>
83.5

$$$$
>  <molecule>
CCn1c(C(=O)N2CCCC(C(=O)O)C2)cc2sccc21 (stereo not drawn)

>  <readout.label>
Her2 level

>  <recorded.number>
98.5

$$$$
>  <molecule>
CC12CCC(C(=O)O)(c3nc(C#N)c(C#N)nc31)C2(C)C (stereo not drawn)

>  <readout.label>
Her2 level

>  <recorded.number>
96.5

$$$$
>  <molecule>
N#CC(C(=O)Nc1ccc(Cl)c(Cl)c1)=C1Nc2ccccc2N1

>  <readout.label>
Her2 level

>  <recorded.number>
72.5

$$$$
>  <molecule>
CCN(CC)c1ccc2c(C)c(-c3ccc(N)cc3)c(=O)oc2c1

>  <readout.label>
Her2 level

>  <recorded.number>
84.5

$$$$

For the molecule O=C(CC(CC(=O)c1ccccc1)C(=O)O)c1ccccc1 , give its reported Her2 level.
101

For the molecule CN(C(=O)c1ccc(S(=O)(=O)NC2CCCC2)cc1)C1CCCCC1 , give its reported Her2 level.
87

For the molecule ON=C1/C(=N\O)CC2(C/C1=N/O)OCCO2 , give its reported Her2 level.
113

* * *

Below, each of the molecules is paired with its reported inhibition value.
- assay.info: 384-well plate pilot, post-Golgi transport modulator project, inhibition of yeast transport mutant growth (AID 636)
- recorded.conditions: absorbance 615 nm, about 18 h, stronger effect = higher value
Active and inactive are the calls of the source. No stated cut-off is given here; in the data, active means inhibition above about 31%; inactive means the rest.

>  <molecule>
O=C(c1ccc(F)cc1)C1CCN(CCn2c(=O)[nH]c3ccccc3c2=O)CC1

>  <inhibition>
-2.73% (inactive)

$$$$
>  <molecule>
C=CCn1c(Cc2csc(N)n2)nnc1SCC(=O)OCC

>  <inhibition>
-2.63% (inactive)

$$$$
>  <molecule>
CCC1CCCCN1C(=O)C1CC(c2cc(Cl)c(OC)cc2OC)=NO1 (centres undefined)

>  <inhibition>
-2.86% (inactive)

$$$$

Read the next record carefully.
For the molecule COC(=O)c1ccccc1NC(=O)c1ccc(-c2ccccc2F)o1 , give its reported inhibition.
-8.36% (inactive)

* * *

Below, each of the molecules is paired with its reported viability value.
- assay.info: SK-BR-3 cell growth inhibitors, pilot screen, 24 h, human (AID 572);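 also: compound exposure lasted between 18 and 24 h rather than exactly 24 h; 100% = carrier-treated control wells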
- recorded.conditions: SK-BR-3 viability, CellTiter-Glo luminescence, at 10 µM, stronger effect = lower value
Please state the figure in %; there is no need to write the unit.

For the molecule O=C(NCc1cccnc1)c1cccc(C(F)(F)F)c1 , give its reported viability.
87

* * *

Below, each of the compounds is paired with its reported viability value.
- assay.info: SK-BR-3 cell growth inhibitors, pilot screen, 24 h, human (AID 572);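 also: compound exposure lasted between 18 and 24 h rather than exactly 24 h; 100% = carrier-treated control wells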
- recorded.conditions: SK-BR-3 viability, CellTiter-Glo luminescence, at 10 µM, stronger effect = lower value
Please state the figure in %; there is no need to write the unit.

For the compound CC1(C)CC(=O)CC(=Nc2ccc(C(=O)O)cc2)C1 , give its reported viability.
92

For the compound CCCN(CCC)C(=O)CC(c1ccc(F)cc1)c1ccco1 (stereo not drawn) , give its reported viability.
71

For the compound O=C1NC(c2cccnc2)C(C(=O)c2cccs2)C(O)(C(F)(F)F)N1 (stereo not drawn) , give its reported viability.
116

* * *

Below, each of the compounds is paired with its reported differential viability (reversal) value.
- assay.info: reversal of MRP1-mediated doxorubicin resistance, pilot screen, H69AR cells, doxorubicin co-treatment (AID 601)
- recorded.conditions: H69AR cells + 2 uM doxorubicin, CellTiter-Glo, 72 h; at 10 µM; stronger effect = higher value
Please state the figure in %; there is no need to write the unit.

Example cases with answers are listed next.
>  <smiles.structure>
Cn1c(COc2ccccc2)nnc1SCC(=O)Nc1ccc(N2CCOCC2)c(Cl)c1

>  <readout.label>
differential viability (reversal)

>  <recorded.number>
11.6

$$$$
>  <smiles.structure>
COc1cccc(C(=O)Nc2cccc(C(=O)N3CCOCC3)c2)c1

>  <readout.label>
differential viability (reversal)

>  <recorded.number>
13

$$$$
>  <smiles.structure>
COc1cc(NC(=O)CSCc2cnn(-c3ccccc3)c2-n2cccc2)cc(OC)c1

>  <readout.label>
differential viability (reversal)

>  <recorded.number>
5.25

$$$$
>  <smiles.structure>
COc1cccc(C(=O)Nc2cnc(NC(=O)c3ccco3)cc2C)c1

>  <readout.label>
differential viability (reversal)

>  <recorded.number>
8.55

$$$$

For the compound O=C(O)CCc1ccc(-c2ccc(F)cc2)n1CCC(=O)O , give its reported differential viability (reversal).
-9.11

* * *

- assay.info: reversal of MRP1-mediated doxorubicin resistance, pilot screen, H69AR cells, doxorubicin co-treatment (AID 601)
- recorded.conditions: H69AR cells + 2 uM doxorubicin, CellTiter-Glo, 72 h; measured here: viability with 2 uM doxorubicin; at 10 µM; stronger effect = lower value
Label key: Yes means viability under 90%; No means viability of 90% or more.

>  <compound>
CCOC(=O)c1c(C)oc2ccc(O)c(CN(C)C)c12

>  <label.value>
Yes

$$$$
>  <compound>
COC(=O)c1[nH]c2ccc(C)cc2c1NC(=O)CN1CCC(C)CC1

>  <label.value>
No

$$$$
>  <compound>
C=CCN1C(=O)C2(/C(=C(\O)c3ccc4c(c3)OCCO4)C(=O)C(=O)N2CCCOC)c2ccccc21 (configuration not stated)

>  <label.value>
Yes

$$$$
>  <compound>
COc1ccc(Cc2nnc3n2N=C(c2cc4ccccc4o2)CS3)cc1OC

>  <label.value>
Yes

$$$$
>  <compound>
CC(C)N(C(=O)N1CCC(c2nc(-c3ccncc3)no2)CC1)C(C)C

>  <label.value>
No

$$$$
>  <compound>
CCS(=O)(=O)N1CCC(C(=O)NC2CCCCC2)CC1

>  <label.value>
Yes

$$$$
>  <compound>
CC1(C)C2CCC1(C)C(OC(=O)CSc1nc(N)cc(=O)[nH]1)C2 (configuration not stated)

>  <label.value>
Yes

$$$$
>  <compound>
Cc1ccc2cc(CN(CCN3CCCC3)C(=O)Nc3ccc(F)cc3)c(=O)[nH]c2c1C

>  <label.value>
Yes

$$$$
>  <compound>
Oc1cccc(Nc2nc(NCC3CCCO3)c3ccccc3n2)c1 (configuration not stated)

>  <label.value>
Yes

$$$$
>  <compound>
CCOC(=O)c1cnc(-n2nc(C)cc2C)nc1N1CC(C)OC(C)C1 (configuration not stated)

>  <label.value>
Yes

$$$$

Lab log: compare recorded viability with 90%; is it strictly lower for COc1ccc(CCN2C(=O)CC(N3CCN(S(=O)(=O)c4ccccc4)CC3)C2=O)cc1 (configuration not stated) ?
No

Lab log: compare recorded viability with 90%; is it strictly lower for O=S(=O)(c1cccs1)N1CCN(Cc2nc3ccccc3s2)CC1 ?
No

* * *

- assay.info: reversal of MRP1-mediated doxorubicin resistance, pilot screen, H69AR cells, doxorubicin co-treatment (AID 601)
- recorded.conditions: H69AR cells, CellTiter-Glo, 72 h; compound alone cytotoxicity; at 10 µM
readout.label: viability (%)
Please state the figure in %; there is no need to write the unit.

Example cases with answers are listed next.
>  <molecule>
Cc1cccc(N2C(=O)CC(N(C(=O)c3ccco3)c3cccc(C)c3)C2=O)c1 (stereo unspecified)

>  <viability / %>
98.5

$$$$
>  <molecule>
COc1ccc2cc3cc(C(=O)NCC4CCCO4)oc3nc2c1 (stereo unspecified)

>  <viability / %>
88.1

$$$$
>  <molecule>
Cn1c(-c2ccc(F)cc2)cnc1NCc1ccccc1

>  <viability / %>
66.2

$$$$

For the molecule CCOc1ccc(OCc2cccc(C(=O)N3CCOCC3)c2)cc1 , give its reported viability.
94.5

For the molecule CN(C)CC(C(=O)c1ccccc1)c1ccccc1 (stereo unspecified) , give its reported viability.
1.17

For the molecule CN1CCN(C(=O)c2ccccc2N(Cc2ccccc2)S(C)(=O)=O)CC1 , give its reported viability.
91.6

For the molecule CCOC(=O)c1ccc(COC(=O)c2cc3ccccc3oc2=O)o1 , give its reported viability.
114

For the molecule c1ccc(CNC2=NCCC2)nc1 , give its reported viability.
101

For the molecule CCN(CC)CCNC(=O)C1CCN(S(=O)(=O)N2CCCCC2)CC1 , give its reported viability.
94.8

For the molecule c1cc2c(cc1C1=Nn3c(nnc3C3CCCCC3)SC1)OCO2 , give its reported viability.
9.93
